Biological target: Recombinant human PAD4 (2-663) (Homo sapiens)
Construct: Recombinant human PAD4 (2-663) was expressed in E. coli
Assay: PAD4 Inhibition Assay
Details: 60 mins pre-incubation at RT; substrate BAEE with CaCl2; fluorescent signal (λex 405/λem 460)
pIC50: −log10 of the molar value.
Recorded pIC50 values for a group of compounds are listed next.

INSERT INTO assay_data (compound, measurement_label, endpoint_value) VALUES
  ('C[C@@H](CN)NC(=O)c1cc2cc(Cl)c(F)c(F)c2[nH]1 [Example 9]', 'pIC50', '≥ 6.00');

// returns reported pIC50 for input O=C(N[C@@H]1CCNC1)c1cc2cc(Cl)c(F)c(F)c2[nH]1 [Example 25]
4.00 to 5.00

// returns reported pIC50 for input N[C@@H]1CCN(C(=O)c2cc3cc(F)c(Br)c(F)c3[nH]2)C1 [Example 6]
4.00 to 5.00

// returns reported pIC50 for input N[C@H]1CN(C(=O)c2cc3cc(Cl)c(F)c(F)c3[nH]2)C[C@@H]1O [Example 22]
≥ 6.00

// returns reported pIC50 for input O=C(NC[C@@H]1CCNC1)c1cc2cc(Cl)c(F)c(F)c2[nH]1 [Example 63]
4.00 to 5.00

// returns reported pIC50 for input N[C@@H]1CCN(C(=O)c2cc3cc(F)c(F)c(F)c3[nH]2)C1 [Example 3]
5.00 to 6.00

* * *

Recorded pIC50 values for a group of compounds are listed next.
Molecular target: Recombinant human PAD4 (2-663) (Homo sapiens)
Construct: Recombinant human PAD4 (2-663) was expressed in E. coli
Experiment: PAD4 Inhibition Assay
Conditions: 60 mins pre-incubation at RT; substrate BAEE with CaCl2; fluorescent signal (λex 405/λem 460)
pIC50: −log10 of the molar value.

Some solved cases for reference:
INSERT INTO measurements (compound, endpoint_value) VALUES
  ('N[C@H]1CN(C(=O)c2cc3cc(Cl)c(F)c(F)c3[nH]2)CC[C@@H]1F', '4.00 to 5.00'),
  ('N[C@@H]1CCN(C(=O)c2cc3cc(Br)ccc3[nH]2)C1', '5.00 to 6.00'),
  ('N[C@H]1CN(C(=O)c2cc3cc(Cl)c(F)c(F)c3[nH]2)CC[C@H]1F', '< 4.00'),
  ('NCC(NC(=O)c1cc2cc(Cl)c(F)c(F)c2[nH]1)C1CC1 (stereo not drawn)', '4.00 to 5.00'),
  ('CO[C@@H]1CNC[C@H]1NC(=O)c1cc2cc(Cl)c(F)c(F)c2[nH]1', '4.00 to 5.00');

Param readout= pIC50; system= Recombinant human PAD4 (2-663) (Homo sapiens); entry= N[C@H]1CN(C(=O)c2cc3cc(Cl)c(F)c(F)c3[nH]2)C[C@H]1F ; returns value.
4.00 to 5.00

* * *

Biological target: Recombinant human PAD4 (2-663) (Homo sapiens, UniProt Q9UM07)
Construct: Recombinant human PAD4 (2-663) was expressed in E. coli
Sequence (Q9UM07 2-663): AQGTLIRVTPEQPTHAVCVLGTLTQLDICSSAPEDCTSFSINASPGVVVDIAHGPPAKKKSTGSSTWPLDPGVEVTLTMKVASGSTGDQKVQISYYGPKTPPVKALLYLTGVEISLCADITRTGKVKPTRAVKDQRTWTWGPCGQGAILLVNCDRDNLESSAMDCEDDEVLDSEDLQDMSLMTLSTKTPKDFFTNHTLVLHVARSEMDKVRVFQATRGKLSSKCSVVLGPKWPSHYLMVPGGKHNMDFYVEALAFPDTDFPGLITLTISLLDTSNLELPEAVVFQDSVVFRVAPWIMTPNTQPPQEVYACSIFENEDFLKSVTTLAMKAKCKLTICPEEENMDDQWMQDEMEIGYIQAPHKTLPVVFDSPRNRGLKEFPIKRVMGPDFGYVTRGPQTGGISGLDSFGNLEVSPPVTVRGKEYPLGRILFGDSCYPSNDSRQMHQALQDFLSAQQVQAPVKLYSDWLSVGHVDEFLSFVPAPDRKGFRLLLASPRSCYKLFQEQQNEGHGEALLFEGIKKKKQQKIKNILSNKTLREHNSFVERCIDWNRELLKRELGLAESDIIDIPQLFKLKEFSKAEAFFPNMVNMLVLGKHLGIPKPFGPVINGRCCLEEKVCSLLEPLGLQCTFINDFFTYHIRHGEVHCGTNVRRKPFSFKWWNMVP
Assay: PAD4 Inhibition Assay
Settings: 60 mins pre-incubation at RT; substrate BAEE with CaCl2; fluorescent signal (λex 405/λem 460)
Method: Protein: Recombinant human PAD4 (2-663) was expressed in E. coli as an N-terminal Strep-tag and C-terminal 6-his tag fusion protein. Protein was purified using Strep-tactin resin followed by size exclusion chromatography. Tags were not removed during purification. Activity of the protein was determined using ammonia quantification assay. […]
measurement.label: IC50

Some solved cases for reference:
INSERT INTO measurements (molecule, endpoint_value) VALUES
  ('C[C@H]1CNC[C@@H]1NC(=O)c1cc2cc(Cl)c(F)c(F)c2[nH]1 [Example 36]', '1 to 10 µM'),
  ('C[C@H]1NC[C@H]1NC(=O)c1cc2cc(Cl)c(F)c(F)c2[nH]1 [Example 55]', '1 to 10 µM'),
  ('NC1CN(C(=O)c2cc3cc(Cl)c(F)c(F)c3[nH]2)C1 [Example 24]', '1 to 10 µM'),
  ('CC(C)(C)[C@@H](CN)NC(=O)c1cc2cc(Cl)c(F)c(F)c2[nH]1 [Example 28]', '10 to 100 µM'),
  ('CC[C@@H](CN)NC(=O)c1cc2cc(Cl)c(F)c(F)c2[nH]1 [Example 10]', '1 to 10 µM'),
  ('N[C@@H]1CCN(C(=O)c2cc3cc(Cl)c(Cl)cc3[nH]2)C1 [Example 44]', '1 to 10 µM');

// returns reported IC50 for input N[C@@H]1CCN(C(=O)c2cc3cc(Cl)ccc3[nH]2)C1 [Example 8]
1 to 10 µM

// returns reported IC50 for input CC1(NC(=O)c2cc3cc(Cl)c(F)c(F)c3[nH]2)CNC1 [Example 53]
10 to 100 µM

// returns reported IC50 for input N[C@@H]1CCN(C(=O)c2cc3ccc(Cl)cc3[nH]2)C1 [Example 46]
1 to 10 µM

// returns reported IC50 for input N[C@H]1CCN(C(=O)c2cc3cc(Cl)c(F)c(F)c3[nH]2)C1 [Example 27]
≤ 1 µM
